- assay overview: Water solubility
- Format: physicochemical
- test conditions: water
measured quantity: solubility (µM)
Reply with just the number (in µM).

Entry `NC(=S)Nc1cccc([N+](=O)[O-])c1` has what solubility?
640

###

Answer each item with its documented pIC50.
- system tested: rat UT-B (Rattus norvegicus)
- Sequence (P97689 whole entry): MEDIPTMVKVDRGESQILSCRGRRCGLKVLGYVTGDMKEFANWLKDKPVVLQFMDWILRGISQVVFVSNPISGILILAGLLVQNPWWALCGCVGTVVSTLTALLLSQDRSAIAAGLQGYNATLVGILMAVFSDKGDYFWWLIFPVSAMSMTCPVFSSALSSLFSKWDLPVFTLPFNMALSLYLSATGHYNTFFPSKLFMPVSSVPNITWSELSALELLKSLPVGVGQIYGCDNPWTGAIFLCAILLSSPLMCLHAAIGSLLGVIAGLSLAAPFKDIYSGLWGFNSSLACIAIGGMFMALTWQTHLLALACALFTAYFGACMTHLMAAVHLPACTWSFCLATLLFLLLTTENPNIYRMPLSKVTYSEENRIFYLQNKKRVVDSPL
- assay overview: UT-B inhibition, erythrocyte lysis assay
- Type: cell-based
- test conditions: read-out: UT-B IC50; rat erythrocyte lysis assay; 15 min incubation
Kindly note that pIC50 refers to -log10 of the concentration in mol/L and answer with the value alone.

Suppose we examine the compound NC(=S)c1ccncc1 [thioisonicotinamide] ; what pIC50 value has been reported?
2.55

Field request: pIC50 | item: NC(=S)c1ccncc1 [Compound 26, thioisonicotinamide]
2.55

GET /values?readout=pIC50&item= `CNC(=S)NC`
2.41

// returns reported pIC50 for input `CNC(=O)NC`
1.85

FYI, the data here is from paper PMC4364388.
